For each of the compounds below, state its relative viability EC50.
# System: Caco-2
# Protocol details: relative viability EC50 (midpoint between 100% and the lowest measured viability); higher = less toxic
# Condition description: 72 h

[ask] Give Caco-2 relative viability EC50 for c1ccc(-c2nc(CN3CCN(c4ncccn4)CC3)c[nH]2)cc1 [NGD-94-1]
[reply] > 10 µM

[ask] // query: O=c1c(-c2ccc(O)cc2)coc2c([C@@H]3O[C@H](CO)[C@@H](O)[C@H](O)[C@H]3O)c(O)ccc12 [kakonein]
[reply] > 10 µM

[ask] Repeat with Cc1cc(-n2c(=O)[nH]c(=O)n(C)c2=O)ccc1Oc1ccc(SC(F)(F)F)cc1 [toltrazuril]
[reply] > 10 µM

[ask] How about CS(=O)(=O)c1ccc([C@@H](O)[C@@H](CF)NC(=O)C(Cl)Cl)cc1 [florfenicol] ?
[reply] > 10 µM

[ask] Next entry: O=c1c(-c2ccc(O)cc2)coc2c([C@@H]3O[C@H](CO)[C@@H](O)[C@H](O)[C@H]3O)c(O)ccc12 [puerarin]
[reply] > 10 µM

[ask] Next: COc1ccc2ccc(=O)oc2c1CC=C(C)C [osthol]
[reply] > 10 µM

[ask] // query: N=C(NCCCCCCNC(=N)NC(=N)Nc1ccc(Cl)cc1)NC(=N)Nc1ccc(Cl)cc1 [chlorhexidine]
[reply] 3.19 µM

[ask] Same again, this time with NC(=O)C[C@H](N)C(=O)O [L-asparagine]
[reply] > 10 µM

[ask] And what about the compound CN(C)CCOc1ccc(/C(=C(/CCCl)c2ccccc2)c2ccccc2)cc1 [toremifene] ?
[reply] 2.13 µM

----------
# Test system: Caco-2
# Protocol details: cell viability relative to DMSO; higher = less toxic
# Condition description: 72 h; 10000 nM
Test readout: cell viability (%)
Provide the reading as a plain figure in %.

[ask] Which measured cell viability belongs to `N[C@@H]1CCCN(c2c(/C=C3\SC(=O)NC3=O)cccc2-c2ccccc2)C1` , tested on Caco-2?
[reply] 98.6

[ask] Now the molecule `CCCCOc1ccc(OCCCN2CCOCC2)cc1`
[reply] 98

[ask] Check `CCCC[C@H](NC(=O)[C@@H]1[C@@H]2[C@H](CN1C(=O)[C@@H](NC(=O)NC1(CS(=O)(=O)C(C)(C)C)CCCCC1)C(C)(C)C)C2(C)C)C(=O)C(=O)NC1CC1` too.
[reply] 95.5

[ask] Input C=C[C@H]1CN2CC[C@H]1CC2C(OC(=O)OCC)c1ccnc2ccc(OC)cc12 (stereo in doubt) [quinine-ethyl-carbonate]
[reply] 114

[ask] Try this molecule next: `COc1cccc(-c2cc(NCc3ccc4c(c3)OCO4)nc(N)n2)c1`
[reply] 46.6

[ask] Lookup C[C@]12CC[C@@H]3c4ccc(O)cc4C[C@@H](CCCCCCCCC[S+]([O-])CCCC(F)(F)C(F)(F)F)[C@H]3[C@@H]1CC[C@@H]2O (some centres not stated)
[reply] 85.4

[ask] `COc1cc2c(N3CCN(C(=O)Nc4ccc(OC(C)C)cc4)CC3)ncnc2cc1OCCCN1CCCCC1` ?
[reply] 98.2

----------
# Tested on: HepG2
# Protocol details: cell viability relative to DMSO; higher = less toxic
# Condition description: 72 h; 10 nM
Test readout: cell viability
Answer with the figure and its unit, nothing else.

[ask] Look up cell viability: CCCN1CCC[C@@H]2Cc3nc(N)ncc3C[C@H]21 [quinelorane]
[reply] 94.1%

[ask] Item: CCOc1nc2cccc(C(=O)O)c2n1Cc1ccc(-c2ccccc2-c2noc(=O)[nH]2)cc1 [azilsartan]
[reply] 103%

[ask] Now the same for OC[C@H]1O[C@@H](O[C@@H]2[C@H](O)[C@@H](O)[C@H](O[C@H]3[C@H](O)[C@@H](O)C(O)O[C@@H]3CO)O[C@@H]2CO)[C@H](O)[C@@H](O)[C@H]1O (stereo partly drawn) [4-galactosyllactose]
[reply] 113%

[ask] Repeat with O=C(O)Cc1ccc2c(c1)C(=O)c1ccccc1CO2 [isoxepac]
[reply] 103%

[ask] And what about the compound `C=CCN1CCc2cc(O)c(O)cc2[C@H](c2ccccc2)C1` ?
[reply] 93.3%

[ask] How about `NC1=N[C@@]2(c3cc(NC(=O)c4ccc(F)cn4)ccc3F)COC[C@H]2CS1` ?
[reply] 110%

[ask] Ok, now O=C(CCCCC(=O)Nc1c(I)cc(I)c(C(=O)O)c1I)Nc1c(I)cc(I)c(C(=O)O)c1I [iodipamide]
[reply] 93.3%

[ask] Next record, please: COc1cc2c(cc1OC)C1CC(=O)C(CC(C)C)CN1CC2 (stereo not drawn) [tetrabenazine]
[reply] 99.4%
